Where do the numbers come from? From ChEMBL document CHEMBL1201862.

GI50 values by entry
- Test system: EKVX
- assay-info: NCI tumour cell line growth inhibition, 48 h
Activity calls are given as the source filed them. Rule as the data show it: active = GI50 up to about 1.1 µM and inactive = higher.

Before answering, review these 5 worked examples.
compound	endpoint-result
CNCc1cc(OC)ccc1-c1ccc(OC)c(OC)c1OC	> 74.8 µM (inactive)
O=C(Nc1nc(C23CC4CC(CC(C4)C2)C3)cs1)c1cc2c(ccc3ccccc32)oc1=O	> 100 µM (inactive)
COc1ccc(S(=O)(=O)N2C(=O)CCC2C(=O)NN)cc1 (stereo unspecified)	> 100 µM (inactive)
O=[N+]([O-])C1(C2([N+](=O)[O-])CCCC2)CCCC1	> 100 µM (inactive)
O=C(/C=C/c1ccc(O)c(O)c1)NC(CO)C(=O)O (stereo unspecified)	> 100 µM (inactive)

Shift focus to the following entry.
Field GI50 (entry CCOC(=O)C1CC/C(=C(/C#N)C(=O)OC)N1 (stereo unspecified) ) reads > 100 µM (inactive)

----------
- Test system: T47D
- assay-info: NCI tumour cell line growth inhibition, 48 h
Calls of active or inactive are those of the source. Rule as the data show it: active = GI50 up to about 1.1 µM and inactive = higher.
Pick from active, inactive when you respond.

Answered cases to consult:
compound	classification
COc1ccc(-c2nc(SCC(=O)NNC(=S)Nc3ccccc3)[nH]c2-c2ccc(OC)cc2)cc1	inactive
CCOC(=O)C1(Cc2ccccc2)C=CN(C(=O)c2ccccc2)C=C1	inactive
C(/c1ccco1)=c1/nc(-c2ccccc2)n2c1nc1ccccc12	active

Given CSc1ncc2c(n1)-c1ccccc1OC2NC1CC1 (centres undefined) , state the outcome it received in this test.
inactive

----------
- Test system: KM12
- assay-info: NCI tumour cell line growth inhibition, 48 h
Calls of active or inactive are those of the source. Cut-off read from the data, not from the text of the source: active = GI50 up to about 1.1 µM and inactive = higher.
Choose one outcome from this list and give only that: active, inactive

compound	classification
CC1CC(=O)c2c(ccc3c2C(=O)c2cccc(O)c2C3=O)C1 (stereo not given)	inactive

Which outcome was entered for the compound CCC1CN2CCc3cc(OC)c(OC)cc3C2CC1CC1c2cc(OC)c(OC)cc2CCN1C(=O)C(N)Cc1ccccc1.[O-][Cl+3]([O-])([O-])O (stereo not given) in this test?
inactive

Name the outcome recorded for O=C(Nc1ccc2nc(O)n[n+]([O-])c2c1)C(F)(F)F in the assay.
inactive

How was CC1=Nc2ccccc2C1C(Cc1ccccc1N)c1c(C)[nH]c2ccccc12 (stereo not given) classified in this test?
inactive

What was the test verdict on Cn1c(N/N=C/c2ccc(Cl)cc2)nc(-c2ccc(Cl)cc2)c(C#N)c1=O ?
inactive

For COc1ccc(C[C@H](N)C(=O)NC2C(CO)OC(n3cnc4c(N(C)C)ncnc43)C2O)cc1 (stereo not given in full) , which call appears in the assay record?
active

What is the recorded call for this compound in the test? O=C(O)CN1CCN(CC(=O)O)CCN(CC(=O)O)CCN(CC(=O)O)CC1
inactive

Look up the recorded call for COCn1cnc2c(=O)nc(SC)n(-c3ccccc3)c21 in this test.
inactive

Any idea what this test logged for CC(=O)C(=O)NC1/C=C(C)\C=C/C(O)C/C=C(C)\C=C/C(O)CC2OC(=O)C1(C)C(=O)C2C (stereo not given) ?
inactive

Lab log entry: COC1=CC(=O)[C@]2(C)[C@H](C1=O)C(C)[C@H]2c1ccc(OC)cc1 (stereo not given in full) — outcome as called in the assay?
inactive

----------
- Test system: PC-3
- assay-info: NCI tumour cell line growth inhibition, 48 h
Activity calls are given as the source filed them. No stated cut-off is given here; in the data, active = GI50 up to about 1.1 µM and inactive = higher.
Choose one outcome from this list and give only that: active, inactive

The examples below pair each entry with its known result.
molecule	assayed-system	classification
[N-]=[N+]=Nc1c([N+](=O)[O-])c(=O)n2c3c(cccc13)CCC2	PC-3	inactive
COc1ccc(S(=O)(=O)N2C(=O)CCC2C(=O)NN)cc1 (stereo unspecified)	PC-3	inactive
O=S1(=O)CCN(Cc2ccccc2)/C1=N\S(=O)(=O)c1ccc(Cl)cc1	PC-3	inactive
C=CCOC(C)(C)C1=CCC(C)CC1 (stereo unspecified)	PC-3	inactive
O=C1CC(c2ccccc2)C2(C(=O)NC(=S)NC2=O)C(c2ccccc2)C1 (stereo unspecified)	PC-3	inactive
CC12CCC(C(=O)O1)C(C)(C)O2 (stereo unspecified)	PC-3	inactive
COc1c(O)c2c(c3cc(C(=O)N4CCc5c4c(O)c(OC)c4[nH]c(C(=O)N6CC7CC78C6=CC(=O)c6[nH]cc(C)c68)cc54)[nH]c13)CCN2C(N)=O (stereo unspecified)	PC-3	active
CCOC(=O)C(C#N)C1=CC(=O)C(=O)c2ccc(OC)cc21 (stereo unspecified)	PC-3	inactive
S=C(c1c[nH]c2ccccc12)N1CCN(Cc2ccccc2)CC1	PC-3	inactive
COc1cccc2c1OC1(C=C2)Oc2ccccc2C(=O)N1C (stereo unspecified)	PC-3	inactive

Test call for this molecule, please: COc1cccc(C=C2N=C(c3ccccc3)N(n3c(-c4ccccc4)nc4ccccc4c3=O)C2=O)c1
inactive

Lab log entry: O=C1CSC(/C=C/c2ccccc2)N1c1ccc(-c2ccc(-n3c(-c4ccccc4)nc4ccccc4c3=O)cc2)cc1 (stereo unspecified) — outcome as called in the assay?
inactive

Query: recorded result category for CCOC(=O)c1cccc(/N=N/c2nc[nH]c2/C=C/C(=O)OC)c1 in this test
inactive

Look up the recorded call for O=c1[nH]/c(=C/c2ccc(OCc3ccccc3)cn2)c(=O)[nH]/c1=C/c1ccccc1 in this test.
active

Hi, sorry to bother you, what did the test record for CCCN1C(=O)CN(S(=O)(=O)c2ccc(Cl)cc2)C1=O ?
inactive
